Each recorded value in this set is attributed to patent US20130031647A1.

Reported % inhibition of [^125I]SDF-1 values follow for various binders
target_system: T1, human CXCR4 receptor (human, UniProt P61073 1-352)
T1 construct: whole, on cells; Transfected in NIH3T3 and CHO-K1 cells (whole cells or cell membranes) or endogenous on human tumor cell lines (MDA-MB-231, HeLa, U937, Ramos, KARPAS299); also called hCXCR4; wild-type CXCR4 receptor
T1 sequence (P61073 whole entry): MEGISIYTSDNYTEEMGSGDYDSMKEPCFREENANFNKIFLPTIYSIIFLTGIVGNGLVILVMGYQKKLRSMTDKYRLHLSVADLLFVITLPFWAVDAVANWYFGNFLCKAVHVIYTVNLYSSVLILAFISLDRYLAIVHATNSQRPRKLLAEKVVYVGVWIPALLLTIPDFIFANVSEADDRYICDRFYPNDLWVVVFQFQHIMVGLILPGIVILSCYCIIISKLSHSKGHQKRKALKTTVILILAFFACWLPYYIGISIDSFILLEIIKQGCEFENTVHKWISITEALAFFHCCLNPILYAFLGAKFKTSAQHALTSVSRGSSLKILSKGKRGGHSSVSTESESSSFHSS
protocol_notes: competition of [^125I]SDF-1 (1 nM) binding, SPA, CHO-K1 membranes expressing human CXCR4
Answer with a number only, understood to be in %.

Return reported % inhibition of [^125I]SDF-1; argument: humanized antibody Hz515H7 VH1 D76N VL2 (antibody, human IgG1, kappa, V domains shown, human IgG1/kappa format; Biotinylated in the IHC study; also called hz515H7VL2; hz515H7 VH D76N VL2) VH: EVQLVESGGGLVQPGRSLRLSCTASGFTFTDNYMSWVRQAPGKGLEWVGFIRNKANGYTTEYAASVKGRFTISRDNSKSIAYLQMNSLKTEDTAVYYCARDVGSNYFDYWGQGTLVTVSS VL: DIVMTQSPSSLAVSLGERATMSCKSSQSLFNSRTRKNYLAWYQQKPGQSPKLLIYWASARDSGVPARFTGSGSETYFTLTISRVQAEDLAVYYCMQSFNLRTFGQGTKVEIKR
77

Continuing:
Fill in the blank: the reported % inhibition of [^125I]SDF-1 of humanized antibody Hz515H7 VH1 D76N VL2.2 (antibody, human IgG1, kappa, V domains shown, human IgG1/kappa format; also called hz515H7VL2.2) VH: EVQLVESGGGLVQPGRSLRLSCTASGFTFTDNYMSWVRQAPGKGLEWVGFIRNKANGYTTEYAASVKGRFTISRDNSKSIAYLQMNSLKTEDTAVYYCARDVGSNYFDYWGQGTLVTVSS VL: DIVMTQSPDSLAVSLGERATMSCKSSQSLFNSRTRKNYLAWYQQKPGQPPKLLIYWASARDSGVPDRFTGSGSETYFTLTISRVQAEDVAVYYCMQSFNLRTFGQGTKVEIKR is ____.
61

Give the measured % inhibition of [^125I]SDF-1 of humanized antibody Hz515H7 VH1 D76N VL2.1 (antibody, human IgG1, kappa, V domains shown, human IgG1/kappa format; also called hz515H7VL2.1) VH: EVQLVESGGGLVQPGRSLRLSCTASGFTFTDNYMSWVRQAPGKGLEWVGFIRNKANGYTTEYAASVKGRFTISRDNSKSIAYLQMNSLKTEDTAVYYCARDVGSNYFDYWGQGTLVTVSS VL: DIVMTQSPDSLAVSLGERATMSCKSSQSLFNSRTRKNYLAWYQQKPGQPPKLLIYWASARDSGVPDRFSGSGSETYFTLTISRVQAEDLAVYYCMQSFNLRTFGQGTKVEIKR .
68

Any idea what its % inhibition of [^125I]SDF-1 is? The binder is humanized antibody Hz515H7 VH1 D76N VL2.3 (antibody, human IgG1, kappa, V domains shown, human IgG1/kappa format; also called hz515H7VL2.3) VH: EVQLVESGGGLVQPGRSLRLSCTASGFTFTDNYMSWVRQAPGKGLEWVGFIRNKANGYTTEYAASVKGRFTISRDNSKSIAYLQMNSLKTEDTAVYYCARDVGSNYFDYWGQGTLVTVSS VL: DIVMTQSPDSLAVSLGERATMSCKSSQSLFNSRTRKNYLAWYQQKPGQPPKLLIYWASARDSGVPDRFTGSGSETYFTLTISSLQAEDLAVYYCMQSFNLRTFGQGTKVEIKR
49
